Biological target: UniProtKB Q9QYJ6
Sequence (Q9QYJ6 whole entry): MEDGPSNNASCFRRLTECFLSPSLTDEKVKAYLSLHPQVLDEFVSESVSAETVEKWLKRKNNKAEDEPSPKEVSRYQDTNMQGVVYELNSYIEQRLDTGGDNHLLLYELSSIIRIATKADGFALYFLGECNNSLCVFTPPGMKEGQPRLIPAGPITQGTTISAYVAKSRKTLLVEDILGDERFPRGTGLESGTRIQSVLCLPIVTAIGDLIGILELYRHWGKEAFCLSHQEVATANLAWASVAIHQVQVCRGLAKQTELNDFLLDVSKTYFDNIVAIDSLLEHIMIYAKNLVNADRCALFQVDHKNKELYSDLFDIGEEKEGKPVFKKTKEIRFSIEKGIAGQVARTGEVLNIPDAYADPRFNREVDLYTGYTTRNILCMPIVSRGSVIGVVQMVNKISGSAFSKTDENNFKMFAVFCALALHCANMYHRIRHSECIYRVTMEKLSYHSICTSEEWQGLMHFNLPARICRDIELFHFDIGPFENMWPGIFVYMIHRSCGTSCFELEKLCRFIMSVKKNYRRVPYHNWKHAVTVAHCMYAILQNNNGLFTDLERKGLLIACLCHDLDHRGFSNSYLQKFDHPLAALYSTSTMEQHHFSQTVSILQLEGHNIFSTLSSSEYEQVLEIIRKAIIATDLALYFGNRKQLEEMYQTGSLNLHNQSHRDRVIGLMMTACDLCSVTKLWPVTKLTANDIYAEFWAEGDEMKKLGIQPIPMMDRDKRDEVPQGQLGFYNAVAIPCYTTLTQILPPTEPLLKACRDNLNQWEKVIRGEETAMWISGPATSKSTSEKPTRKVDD
outcome-measure: IC50 (nM)

[
  {
    "compound-structure": "CC(=O)N1CC=C(c2nccnc2OC2CCN(C(=O)c3nc4ccccc4[nH]3)CC2)CC1",
    "val": 71.8
  },
  {
    "compound-structure": "CC(=O)N1CCN(c2nccnc2OC2CN(c3ccc4ccccc4n3)C2)CC1",
    "val": 77.5
  },
  {
    "compound-structure": "Cc1cc(N2CCC(Oc3nccnc3C3CCOCC3)CC2)nc2ccccc12",
    "val": 125
  },
  {
    "compound-structure": "FC1(F)CCCN(c2nccnc2OC2CN(c3ccc4ccccc4n3)C2)C1",
    "val": 92.1
  },
  {
    "compound-structure": "N#Cc1ccc(-c2nccnc2OC2CN(c3ccc4ccccc4n3)C2)cc1",
    "val": 39.4
  },
  {
    "compound-structure": "CC(=O)N1CCC(c2cc(F)cnc2OC2CN(c3ccc4ccccc4n3)C2)CC1",
    "val": 64.8
  },
  {
    "compound-structure": "O=C(c1nc2ccccc2[nH]1)N1CC(Oc2nccnc2C2=CCOCC2)C1",
    "val": 222
  },
  {
    "compound-structure": "CN(C)C(=O)c1ccc(-c2nccnc2OC2CN(c3ccc4ccccc4n3)C2)cc1",
    "val": 15
  },
  {
    "compound-structure": "CC(=O)N1CC=C(c2nccnc2OC2CN(C(=O)c3nc4ccccc4[nH]3)C2)CC1",
    "val": 10.4
  },
  {
    "compound-structure": "Brc1ccc(N2CCC(Oc3ncccc3C3CCOCC3)CC2)nc1",
    "val": 138
  },
  {
    "compound-structure": "CC(=O)N1CCC(c2cccnc2OC2CN(C(=O)c3nc4ccccc4[nH]3)C2)CC1",
    "val": 102
  }
]
